Catalogue of IC50 values
# assayedTarget: Ubiquitin carboxyl-terminal hydrolase 1/WD repeat-containing protein 48 (Homo sapiens, UniProt O94782+Q8TAF3)
# Sequence (O94782 whole entry): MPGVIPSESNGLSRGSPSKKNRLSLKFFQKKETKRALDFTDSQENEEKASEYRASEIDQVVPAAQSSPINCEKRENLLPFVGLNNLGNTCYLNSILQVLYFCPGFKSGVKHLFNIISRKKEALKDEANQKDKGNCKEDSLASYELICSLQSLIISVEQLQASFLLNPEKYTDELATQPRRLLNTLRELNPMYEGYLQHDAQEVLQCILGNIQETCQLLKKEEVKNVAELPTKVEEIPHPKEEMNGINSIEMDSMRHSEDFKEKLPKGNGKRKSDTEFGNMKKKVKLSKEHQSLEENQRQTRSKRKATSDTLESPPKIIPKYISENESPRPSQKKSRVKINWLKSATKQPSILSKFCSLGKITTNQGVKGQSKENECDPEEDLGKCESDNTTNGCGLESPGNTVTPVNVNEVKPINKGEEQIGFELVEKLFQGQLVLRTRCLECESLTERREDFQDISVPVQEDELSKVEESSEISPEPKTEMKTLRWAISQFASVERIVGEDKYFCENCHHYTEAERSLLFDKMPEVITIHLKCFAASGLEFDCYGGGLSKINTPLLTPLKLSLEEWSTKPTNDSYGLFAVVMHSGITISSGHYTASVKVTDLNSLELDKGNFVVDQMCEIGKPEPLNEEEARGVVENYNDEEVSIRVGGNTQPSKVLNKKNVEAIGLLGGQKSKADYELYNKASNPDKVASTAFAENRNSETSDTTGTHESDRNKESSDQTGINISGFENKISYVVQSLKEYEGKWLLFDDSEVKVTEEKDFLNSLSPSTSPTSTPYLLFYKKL
# Sequence (Q8TAF3 whole entry): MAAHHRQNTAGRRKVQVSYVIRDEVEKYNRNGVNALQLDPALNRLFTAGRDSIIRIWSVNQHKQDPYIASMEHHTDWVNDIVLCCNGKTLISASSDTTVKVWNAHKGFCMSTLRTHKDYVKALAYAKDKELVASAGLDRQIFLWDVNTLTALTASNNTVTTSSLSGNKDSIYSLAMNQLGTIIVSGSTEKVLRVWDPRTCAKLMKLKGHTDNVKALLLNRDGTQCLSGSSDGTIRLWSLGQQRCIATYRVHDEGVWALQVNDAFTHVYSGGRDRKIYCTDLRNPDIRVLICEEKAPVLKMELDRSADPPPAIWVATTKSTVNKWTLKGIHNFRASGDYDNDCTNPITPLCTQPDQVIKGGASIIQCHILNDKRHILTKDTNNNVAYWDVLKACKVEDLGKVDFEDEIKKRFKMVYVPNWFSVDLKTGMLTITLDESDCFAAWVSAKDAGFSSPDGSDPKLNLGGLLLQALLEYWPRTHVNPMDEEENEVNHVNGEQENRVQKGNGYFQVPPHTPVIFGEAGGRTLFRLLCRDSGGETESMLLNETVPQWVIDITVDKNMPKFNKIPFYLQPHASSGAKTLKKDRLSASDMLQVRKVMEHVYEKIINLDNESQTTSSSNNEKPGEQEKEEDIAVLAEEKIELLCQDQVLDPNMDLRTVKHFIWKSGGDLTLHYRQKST
# assayRemarks: In Vitro USP1  Inhibitory Activity
readoutLabel: IC50 (µM)

- entrySmiles: "CC(C)n1ncc(Cl)c1-c1nc(NCc2ccc(-c3nc(C(F)(F)F)cn3C)cc2)c2occc2n1"
  readoutLabel: "IC50"
  unitAbbrev: "µM"
  observedMeasurement: 0.00045
- entrySmiles: "COc1cnc(-c2c(OC)ncnc2C2CC2)nc1NCc1ccc(OCc2ccccn2)cc1"
  readoutLabel: "IC50"
  unitAbbrev: "µM"
  observedMeasurement: 0.144
- entrySmiles: "COc1cnc(-c2c(Cl)cnn2C(C)C)nc1N(C)CC1CCN(c2ccccn2)CC1"
  readoutLabel: "IC50"
  unitAbbrev: "µM"
  observedMeasurement: 0.006
- entrySmiles: "Cc1noc(C(C)C)c1-c1nc(NCc2ccc(-c3ccccn3)cc2)c2occc2n1"
  readoutLabel: "IC50"
  unitAbbrev: "µM"
  observedMeasurement: 0.016

* * *

Catalogue of log10(IC50) values
# assayedTarget: Ubiquitin carboxyl-terminal hydrolase 1/WD repeat-containing protein 48 (Homo sapiens, UniProt O94782+Q8TAF3)
# assayRemarks: In Vitro USP1  Inhibitory Activity
readoutLabel: log10(IC50) (log10 of the value in nM)

- compound: "CCOCCOc1ccc(CNc2nc(-c3c(OC)ncnc3C3CC3)nc3ccoc23)cc1"
  observedMeasurement: 1.14
- compound: "COc1ncnc(C2CC2)c1-c1ncc(OC(F)F)c(NCc2ccc(-n3nc(C(F)(F)F)cc3C)cc2)n1"
  observedMeasurement: 0.51
- compound: "COc1cnc(-c2ccccc2C(C)C)nc1N(C)Cc1ccc(-c2ccccn2)cc1"
  observedMeasurement: 1.41
- compound: "COc1ncnc(C2CC2)c1-c1nc(NCc2ccc(-c3ccccn3)cc2)c2[nH]ccc2n1"
  observedMeasurement: 1.71
- compound: "CC(C)c1ccccc1-c1ncc(C(F)(F)F)c(NCC2CCN(c3nc(C(F)(F)F)cn3C)CC2)n1 [US20250289799, Example 75]"
  observedMeasurement: 0.57
- compound: "COc1ncnc(C2CC2)c1-c1ncc2c(n1)N(CC1CCN(c3ccccn3)CC1)CCO2"
  observedMeasurement: 2.75
- compound: "COc1ncnc(C2CC2)c1-c1nc(NCc2ccc(OCc3ccccn3)cc2)c2occc2n1"
  observedMeasurement: 1.29
- compound: "Cc1cc(C(F)(F)F)nn1-c1ccc(CN2C(=O)COc3cnc(-c4ccccc4C(C)C)nc32)cc1"
  observedMeasurement: 0.83
- compound: "COc1ncnc(C2CC2)c1-c1nc(NCc2ccc(OC3CC(OC)C3)cc2)c2occc2n1 (configuration not stated)"
  observedMeasurement: 1.76
- compound: "COc1cnc(-c2c(Cl)cnn2C(C)C)nc1NCc1ccc(-c2nc(C(F)(F)F)cn2C)cc1"
  observedMeasurement: 0.04
- compound: "COc1cnc(-c2ccccc2C(C)C)nc1N(C)CC1CCN(c2nc(C(F)(F)F)cn2C)CC1"
  observedMeasurement: 0.32
- compound: "CC(C)c1ccccc1-c1ncc2c(n1)N(CC1CCN(c3nc(C(F)(F)F)cn3C)CC1)C(=O)CO2"
  observedMeasurement: 0.94
- compound: "COc1ncnc(C2CC2)c1-c1ncc(Cl)c(NCc2ccc(-c3nc(C(F)(F)F)cn3CF)cc2)n1"
  observedMeasurement: 1.11
- compound: "COc1cc(CNc2nc(-c3ccccc3C3CC3)nc3ccoc23)ccc1-c1nc(C(F)(F)F)cn1C"
  observedMeasurement: 0.60
- compound: "COc1cnc(-c2c(C)noc2C(C)C)nc1NCC1CCN(c2nc(C(F)(F)F)cn2C)CC1"
  observedMeasurement: 1.37
- compound: "COc1cc(CNc2nc(-c3ccccc3C3CC3)ncc2OC)ccc1-c1nc(C(F)(F)F)cn1C"
  observedMeasurement: 1.08
- compound: "COc1cnc(-c2c(C)cnn2C2CC2)nc1NCc1ccc(-c2nc(C(F)(F)F)cn2C)cc1"
  observedMeasurement: 0.75
- compound: "CC(C)Oc1cnc(-c2ccccc2C(C)C)nc1NCC12CCC(c3ccc(C(F)(F)F)cn3)(CC1)CC2"
  observedMeasurement: 2.94
- compound: "COc1cnc(-c2c(Cl)cnn2C(C)C)nc1N(C)CC12CCC(c3nc(C(F)(F)F)cn3C)(CC1)OC2"
  observedMeasurement: 0.79
- compound: "[2H]C([2H])([2H])N(Cc1ccc(-c2nc(C(F)(F)F)cn2CF)cc1)c1nc(-c2c(OC)ncnc2C2CC2)ncc1F"
  observedMeasurement: 1.28
- compound: "COc1cnc(-c2c(C)noc2C(C)C)nc1N(C)CC1CCN(c2ccccn2)CC1"
  observedMeasurement: 1.82
- compound: "COc1cc(CNc2nc(-c3c(OC)ncnc3C3CC3)ncc2OC)ccc1-n1nc(C(F)(F)F)cc1C"
  observedMeasurement: 1.00
- compound: "COc1cnc(-c2ccccc2C2CC2)nc1NCc1ccc(-n2nc(C(F)(F)F)cc2C)cc1"
  observedMeasurement: 0.46
- compound: "CC(C)c1ccccc1-c1nc(NCc2ccc(-c3ccccn3)cc2)c2occc2n1"
  observedMeasurement: 0.45
- compound: "COc1ncnc(C2CC2)c1-c1nc(NCc2ccc(-c3nc(C(F)(F)F)cn3C)cc2)c2occc2n1"
  observedMeasurement: 0.98
- compound: "COc1cnc(-c2ccccc2C(C)C)nc1NCc1ccc(OCc2ccccn2)cc1"
  observedMeasurement: 0.72
- compound: "COc1ncnc(C2CC2)c1-c1ncc(OC(C)C)c(NCC23CCC(c4ccc(C(F)(F)F)cn4)(CC2)CC3)n1"
  observedMeasurement: 2.42
